FYI, the data here is from the supplement of paper PMC11908140.

B1: library; numbered along this chain (parent)
chain: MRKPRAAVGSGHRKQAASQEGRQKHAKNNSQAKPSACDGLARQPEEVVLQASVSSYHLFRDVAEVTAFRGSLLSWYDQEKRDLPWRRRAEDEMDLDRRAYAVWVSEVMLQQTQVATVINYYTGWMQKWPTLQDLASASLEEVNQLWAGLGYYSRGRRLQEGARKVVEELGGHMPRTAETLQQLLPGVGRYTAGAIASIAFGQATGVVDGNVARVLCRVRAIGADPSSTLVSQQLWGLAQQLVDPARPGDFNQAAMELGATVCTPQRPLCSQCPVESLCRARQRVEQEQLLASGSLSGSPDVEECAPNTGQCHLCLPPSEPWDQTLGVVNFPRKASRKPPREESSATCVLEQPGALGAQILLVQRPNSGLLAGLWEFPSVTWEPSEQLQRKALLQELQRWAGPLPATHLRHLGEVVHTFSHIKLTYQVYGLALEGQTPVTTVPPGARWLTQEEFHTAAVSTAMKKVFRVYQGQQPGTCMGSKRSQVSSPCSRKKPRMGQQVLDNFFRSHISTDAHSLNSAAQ

variants of: B1; assay: 8OG:A repair function score (normalized; synonymous = 0, nonsense = -1) (normalized log-likelihood score); higher = more repair activity (WT-like); settings: with 8OG:A DNA repair reporter (GFP) in HEK-293 MUTYH KO cells;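 further: cells sorted at 72 h after reporter transfection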
Could you please classify the records by 8OG:A repair function score using these ranges: A: < -0.2; B: ≥ -0.2 and < -0.009; C: ≥ -0.009

Answered cases to consult:
INSERT INTO assay_data (mut, assigned_label) VALUES
  ('M93W', 'C'),
  ('P84W', 'A');

Exercise: Lab note: sort E92T into the matching 8OG:A repair function score band.
Solution: B

Exercise: Lab note: sort T66C into the matching 8OG:A repair function score band.
Solution: C

Exercise: Lab note: sort L40E into the matching 8OG:A repair function score band.
Solution: C

Exercise: Lab note: sort G353K into the matching 8OG:A repair function score band.
Solution: B

Exercise: Lab note: sort V62D into the matching 8OG:A repair function score band.
Solution: B

Exercise: Lab note: sort C314S into the matching 8OG:A repair function score band.
Solution: A
